A collection of compounds and their measured growth inhibition
# Protocol notes: NCI Yeast Anticancer Drug Screen. Data for the mec2-1 strain (AID 157)
# Test parameters: S. cerevisiae mec2-1 strain, at 50.0 µM, stronger effect = higher value
This is part of a sample that, as a whole, favours compounds with a hit. Of some 79,000 tested, about 15% had one in any assay.
Output spec: scalar in %, unitless text.

As a guide, the following entries are already answered.
* CCOC(=O)CC1(c2ccccc2)OC(=O)c2ccccc21 (stereo not given) | 13.2
* NC(CCCC(N)C(=O)c1ccccc1)C(=O)c1ccccc1 (stereo not given) | 2.35
* COC(=O)NC1CC/C=C\CCC1I (stereo not given) | 10

Please examine the following record next.
Task: Report measured growth inhibition; entry is N#Cc1ccc(CSC2=C(c3ccc(Cl)cc3)S/C(=C3\SC(SCc4ccc(C#N)cc4)=C(c4ccc(Cl)cc4)S3)S2)cc1
Result: -15.3
